# tested.target: Kelch-like protein 12 (Homo sapiens, UniProt Q53G59)
# Sequence (Q53G59 whole entry): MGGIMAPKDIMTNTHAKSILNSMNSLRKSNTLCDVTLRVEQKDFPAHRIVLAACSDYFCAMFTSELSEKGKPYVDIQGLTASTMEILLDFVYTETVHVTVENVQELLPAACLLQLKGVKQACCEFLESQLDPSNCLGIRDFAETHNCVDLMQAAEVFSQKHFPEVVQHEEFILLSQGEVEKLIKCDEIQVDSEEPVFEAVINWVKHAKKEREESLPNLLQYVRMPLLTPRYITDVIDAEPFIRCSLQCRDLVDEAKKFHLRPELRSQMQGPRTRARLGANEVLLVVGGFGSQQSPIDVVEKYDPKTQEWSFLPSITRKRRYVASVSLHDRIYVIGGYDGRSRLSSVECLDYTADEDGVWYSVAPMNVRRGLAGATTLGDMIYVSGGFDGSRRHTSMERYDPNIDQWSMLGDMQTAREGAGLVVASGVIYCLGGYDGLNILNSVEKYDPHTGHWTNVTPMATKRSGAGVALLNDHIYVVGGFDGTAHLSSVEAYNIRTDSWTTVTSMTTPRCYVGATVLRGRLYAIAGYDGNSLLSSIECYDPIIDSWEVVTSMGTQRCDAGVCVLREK
# assay.details: Binding affinity to KLHL12 (unknown origin) extracted from Escherichia coli BL21 Gold (DE3) assessed as dissociation constant by fluorescence polarization assay
observation.type: Kd (µM)

H-PGAPPGRDLASVP-OH : 15

====

# tested.target: Kelch-like protein 20 (Homo sapiens, UniProt Q9Y2M5)
# Sequence (Q9Y2M5 whole entry): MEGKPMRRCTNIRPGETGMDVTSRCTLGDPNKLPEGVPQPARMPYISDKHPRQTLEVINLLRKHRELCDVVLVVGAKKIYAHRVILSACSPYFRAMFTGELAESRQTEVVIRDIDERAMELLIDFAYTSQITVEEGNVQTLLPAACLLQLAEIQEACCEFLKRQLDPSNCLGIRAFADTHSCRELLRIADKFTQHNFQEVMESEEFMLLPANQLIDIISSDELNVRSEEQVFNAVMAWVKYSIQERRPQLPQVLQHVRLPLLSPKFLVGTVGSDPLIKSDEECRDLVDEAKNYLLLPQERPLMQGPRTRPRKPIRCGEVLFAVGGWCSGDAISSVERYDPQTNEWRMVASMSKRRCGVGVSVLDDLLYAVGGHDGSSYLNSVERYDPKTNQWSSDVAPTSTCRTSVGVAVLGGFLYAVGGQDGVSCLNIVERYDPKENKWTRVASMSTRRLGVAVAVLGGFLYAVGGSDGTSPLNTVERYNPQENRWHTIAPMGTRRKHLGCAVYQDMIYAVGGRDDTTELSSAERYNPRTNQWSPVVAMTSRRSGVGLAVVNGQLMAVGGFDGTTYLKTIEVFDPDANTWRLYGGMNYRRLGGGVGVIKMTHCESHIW
Starred links: 1 amine or outer side, 2 acyl side, 3 side chain; linkers in the order of their positions; H or OH if unused. Positions of bridges follow the written chain, without caps; N, C: chain ends. Residues, ends and D or L forms follow the SMILES beside them. mXylylene = c1cc(C[*:1])cc(C[*:2])c1
observation.type: Kd (nM)

CC(C)C[C@@H]1NC(=O)[C@H](CC(=O)O)NC(=O)[C@@H]2CCCN2C(=O)[C@@H](N)CSCc2cccc(c2)CSC[C@@H](C(N)=O)NC1=O (H-CPDLC-NH2; linker 1-5 via mXylylene) : 600
